Molecular target: HLA-DRB1*01:01 MHCII molecule (human)
Test: saturation binding ELISA; pH 5
pKd: −log10 of the molar value. Where no end group is shown, it is not given here.
Measured endpoint: pKd

INSERT INTO assay_data (binder, measured_endpoint, experimental_result) VALUES
  ('PVSKMRMATPLLMQA (also: biotinylated, position not given here) [biotinylated high affinity huCLIP]', 'pKd', 8.15);
